- Measurement target: Sigma non-opioid intracellular receptor 1 (Homo sapiens, UniProt Q99720)
- Sequence (Q99720 whole entry): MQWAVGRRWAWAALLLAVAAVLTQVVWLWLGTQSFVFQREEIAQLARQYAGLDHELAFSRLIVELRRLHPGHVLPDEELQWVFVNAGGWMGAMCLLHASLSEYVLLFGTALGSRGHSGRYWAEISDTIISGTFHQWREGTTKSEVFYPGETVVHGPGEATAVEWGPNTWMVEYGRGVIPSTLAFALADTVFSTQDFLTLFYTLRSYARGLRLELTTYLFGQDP
- Experiment description: Binding affinity towards sigma receptor using radiolabeled ligand [3H]-(+)-SKF- 10,047 was determined
pKi: −log10 of the molar value.
Response key: yes means pKi >= 8; no means pKi < 8.

Reference set, count: 3
Molecule: O=C1CC2(CCN(CCc3ccccc3)CC2)OC=C1c1ccccc1F
Label class: yes

Molecule: O=C1CC2(CCN(CCc3ccccc3)CC2)OC=C1c1ccccc1
Label class: yes

Molecule: O=C1CC2(CCCN(Cc3ccccc3)C2)OC=C1c1ccc(F)cc1 (single isomer, unassigned; (-))
Label class: no

Request: I'd appreciate it if you could say whether CCN(CC)CCCC1(C)CC(=O)C(c2ccccc2)=CO1 (single isomer, unassigned; (-)) has pKi at least equal to 8.
Response: no

---

Provide the reported pKi of each item.
- Measurement target: UniProt P14416
- Experiment description: Binding affinity towards dopamine D2 receptor using radiolabeled ligand [3H]spiperone
Answers are plain numbers, as −log10 of the molar value.

Here's what some known entries look like.
Molecule: O=C1CC2(CCN(CCc3ccccc3)CC2)OC=C1c1cccs1
pKi: 5.97
//
Molecule: O=C1CC2(CCN(CCc3ccccc3)CC2)OC=C1c1ccccc1F
pKi: 5.63
//
Molecule: COc1ccc(C2=COC3(CCN(CCc4ccccc4)CC3)CC2=O)cc1
pKi: 5.83
//
Molecule: O=C1CC2(CCN(CCc3ccccc3)CC2)OC=C1c1ccc(F)cc1
pKi: 5.54
//
Molecule: O=C1C=C(c2ccccc2)OC2(CCN(CCc3ccccc3)CC2)C1
pKi: 5.38
//
Molecule: O=C1CC2(CCN(CCc3ccccc3)CC2)OC=C1c1ccccc1
pKi: 5.69

Dear colleague, could you send me pKi for each of the items below? Thanks.
1. CN(C)CC1(C)CC(=O)C(c2ccccc2)=CO1 (single isomer, unassigned; (-))
2. O=C1CC2(CCN(Cc3ccccc3)CC2)OC=C1c1ccccc1

Response:
1. 5.39
2. 5.84

Dear colleague, could you send me pKi for each of the items below? Thanks.
1. O=C1C=C(c2ccco2)OC2(CCN(CCc3ccccc3)CC2)C1
2. O=C1CC2(CCCN(Cc3ccccc3)C2)OC=C1c1ccc(F)cc1 (single isomer, unassigned; (-))

Response:
[5.12, 5.06]

---

- Measurement target: D(2) dopamine receptor (Homo sapiens, UniProt P14416)
- Sequence (P14416 whole entry): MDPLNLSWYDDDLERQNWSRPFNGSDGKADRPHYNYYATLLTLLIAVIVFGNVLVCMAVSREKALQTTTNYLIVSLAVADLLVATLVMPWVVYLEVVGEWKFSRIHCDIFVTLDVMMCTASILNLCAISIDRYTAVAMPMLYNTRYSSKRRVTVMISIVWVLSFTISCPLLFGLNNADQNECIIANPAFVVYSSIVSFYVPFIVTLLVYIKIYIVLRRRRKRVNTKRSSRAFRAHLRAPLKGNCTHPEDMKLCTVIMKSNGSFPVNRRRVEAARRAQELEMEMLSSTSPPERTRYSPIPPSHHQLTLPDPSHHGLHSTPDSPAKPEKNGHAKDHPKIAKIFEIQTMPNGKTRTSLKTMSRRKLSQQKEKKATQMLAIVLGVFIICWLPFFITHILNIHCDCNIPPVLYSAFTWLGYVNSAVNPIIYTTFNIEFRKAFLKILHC
- Experiment description: Binding affinity towards dopamine D2 receptor using radiolabeled ligand [3H]spiperone
pKi: −log10 of the molar value.
Quantity name: pKi

Here's what some known entries look like.
Compound: O=C1C[C@]2(CC[C@@H](OCc3ccccc3)CC2)OC=C1c1ccccc1
Result: < 5.00
//
Compound: CN1CCC2(CC1)CC(=O)C(c1ccccc1)=CO2
Result: < 4.00
//
Compound: CN1CCC2(CC1)CC(=O)C(c1ccc(F)cc1)=CO2
Result: < 4.00
//
Compound: O=C1CC2(CN3CCC2CC3)OC=C1c1ccccc1 (configuration not stated)
Result: < 5.00
//
Compound: CCN(CC)CCCC1(C)CC(=O)C(c2ccccc2)=CO1 (single isomer, unassigned; (-))
Result: < 5.00
//
Compound: O=C1C[C@]2(CC[C@H](OCc3ccccc3)CC2)OC=C1c1ccccc1
Result: < 5.00

// below: pKi requested for another compound
Request: Give reported pKi value for CN1C2CCC1CC1(CC(=O)C(c3ccccc3)=CO1)C2 (single isomer, unassigned; (-))
Response: < 5.00
